Biological target: T1, PACAP-R3 (human, UniProt P41587 24-438)
T1 sequence (looked up): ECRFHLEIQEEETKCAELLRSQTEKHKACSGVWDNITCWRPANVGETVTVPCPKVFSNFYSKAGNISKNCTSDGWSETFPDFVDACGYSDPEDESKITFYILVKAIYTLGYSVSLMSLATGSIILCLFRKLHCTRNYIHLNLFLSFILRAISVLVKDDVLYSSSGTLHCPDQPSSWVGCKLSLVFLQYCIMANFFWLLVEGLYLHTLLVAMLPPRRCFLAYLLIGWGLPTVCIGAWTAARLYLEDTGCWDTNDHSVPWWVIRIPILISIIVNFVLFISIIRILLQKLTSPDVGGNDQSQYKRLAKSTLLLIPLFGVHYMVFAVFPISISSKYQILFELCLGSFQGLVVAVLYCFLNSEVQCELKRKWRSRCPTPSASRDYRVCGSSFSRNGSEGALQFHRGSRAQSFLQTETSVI
Assay: cell-based or functional assay
No end group written: not given here.
parameter_measured: R3 Selectivity (ratio)

[[record]]
binder = "HSDGIFTDSYSRYRKQMAVKKYLAAVK-NH2 [PAC27]"
assay_value = 1.4


a: HSDGIFTKSYSRYRKQMAVKKYLAAVL-NH2 [PAC8]
b: HSDAVFTDNYTRLRKQMAAKKYLNSIQNRI [rR3P184]
Problem: Select one. Lower R3 Selectivity: a or b Refer to your chosen item by its label in the answer.
Solution: a

The origin of these recorded values is patent US6972319B1.
